Cited source: PubChem BioAssay (NCI)

Collected TGI values appear next to each entry.
Test system: NCI-H460 lung
Experiment: NCI tumour cell line growth inhibition, 48 h
State just the number; it will be interpreted in µM.

A selection of reference data follows.
mol	TGI (µM)
O=C1c2ccccc2C(=O)c2c(NCCNCCO)ccc(O)c21	6.85
O=C(c1ccc2ccccc2c1)N(Cc1cccnc1)C(=S)N(Cc1cccnc1)C(=O)c1ccc2ccccc2c1	95.7
C[C@@H]1CC[C@@H]2[C@@H]1[C@H](OC(=O)/C=C/c1ccccc1)[C@]1(C3CCCCC3)C[C@@H](NC(=O)CO)[C@@]2(C)O1	32.8

Attention now turns to another entry.
So what does the record say about TGI for O=c1oc2ccccc2c(O)c1C1c2c(c3ccccc3oc2=O)Oc2c1c(=O)oc1ccccc21 ? 31.7

----------
Test system: OVCAR-3 ovarian
Test: NCI tumour cell line growth inhibition, 48 h; in the data active = GI50 below about 0.43 µM; inactive = the rest
Your reply should match one of these outcome classes. Y (active), N (inactive)

As a guide, the following entries are already answered.
compound	system.under.test	qualitative.label
Cc1cccc(C(=O)/C=C/SC(=NC#N)SCc2ccccc2)c1	OVCAR-3 ovarian	N
CC/C=C\C/C=C\C[C@H](O)C/C=C1/C(=O)C=C[C@@H]1C/C=C\CCCC(=O)O	OVCAR-3 ovarian	N
CC1CCN(CCCCCOc2ccc3oc4cc(Cl)ccc4c(=O)c3c2)CC1	OVCAR-3 ovarian	N
COc1cnc2c(c1)C(=O)c1c-2n(CCCN2CCC(O)CC2)c(=O)c2cc(F)ccc12	OVCAR-3 ovarian	Y
CCN1C(=O)NC(=O)C(C)(N2C(=O)c3c(F)c(F)c(F)c(F)c3C2=O)C1=O (stereo not drawn)	OVCAR-3 ovarian	N

Field: outcome | Entry: O=[N+]([O-])c1ccc2c(N3CCC(CCCC4CCN(c5ncnc6cc([N+](=O)[O-])ccc56)CC4)CC3)ncnc2c1 N

GET /call?item= CC(=O)O[C@H](C[C@H](C(C)C)N(C)C(=O)[C@@H](NC(=O)[C@H]1CCCCN1C)C(C)C)c1nc(C(=O)N[C@@H](Cc2ccccc2)C[C@H](C)C(=O)O)c(C(C)C)s1 returns the recorded outcome of this test. Y

Could you kindly confirm the outcome this assay logged for CCOC(=O)/C=C/c1cc2cc(-c3csc4ccccc34)ccc2[nH]1 ? N

Tell me the recorded outcome of this test for C=CC[P+](c1ccccc1)(c1ccccc1)c1ccccc1 . N

Returns: the outcome recorded for Cc1cc(C2=NNC(=O)Cc3cc4c(cc32)OCCO4)cc(C)c1N in this assay. N

Which outcome did this test record for the compound Cn1c(O)c(C(/C=C/c2ccccc2)=NCCN=C(/C=C/c2ccccc2)c2c(O)n(C)c(=O)n(C)c2=O)c(=O)n(C)c1=O ? N

// outcome(item) with item = O=C(CN1CCN(c2ccc(Cl)cc2)CC1)N1CCN(c2nnc(-c3ccc(Cl)cc3)c(-c3ccc(Cl)cc3)n2)CC1 N

Would you mind telling me which call this test gave O=C(Nc1ccc(Cl)cc1F)c1cc(I)ccc1O ? N

Called result for Oc1ccc(O)c(-c2cc(-c3ccccc3)nn2-c2ccccc2)c1 N

# outcome recorded in this test, key = O=c1cc(N2CCNCC2)oc2c(-c3ccccc3)cccc12 N

What is the recorded call for this compound in the test? CCOC(=O)c1c2c(n(Cc3ccccc3)c1C)-c1ccccc1C(=O)C2=O N

Identify the outcome logged in this assay for the compound shown: O=C(CF)N(O)c1ccc(/C=C/c2ccccc2)cc1 N

What was the test verdict on C=CC(C=O)C1(O)CCOC(=O)/C1=C\N (stereo not drawn) ? N

----------
Test system: HOP-62 NSCLC
Test: NCI tumour cell line growth inhibition, 48 h; in the data active = GI50 below about 0.43 µM; inactive = the rest
One label from this list, please: 1 (yes) = active, 0 (no) = inactive

molecule	qualitative.label
COc1ccc2c(c1)C(=O)C(=O)c1cc(O)c(OC)c(OC)c1-2	0 (no)

Write down the call the test reported for this molecule. Item: COc1ccc(-c2nn(-c3cccc(NC(=O)c4ccc5c(c4)OCCO5)c3)cc2-c2ccncc2)cc1Cl 0 (no)

Dear all, I need the recorded test outcome for COc1ccc2c(c1)C(=O)c1c-2c(Nc2ccc(C(C)=O)cc2)nc2ccccc12 , thank you. 0 (no)

Each molecule tested received a call. Report the one for O=C(Nc1ccc(Cl)cc1F)c1cc(I)ccc1O . 0 (no)

Could you please tell me the result logged for Oc1ccc(O)c(-c2cc(-c3ccccc3)nn2-c2ccccc2)c1 in this assay? 0 (no)

Which outcome was assigned to CC(=O)O[C@H](C[C@H](C(C)C)N(C)C(=O)[C@@H](NC(=O)[C@H]1CCCCN1C)C(C)C)c1nc(C(=O)N[C@@H](Cc2ccccc2)C[C@H](C)C(=O)O)c(C(C)C)s1 in this test? 1 (yes)

Test call for this molecule, please: CCN1C(=O)NC(=O)C(C)(N2C(=O)c3c(F)c(F)c(F)c(F)c3C2=O)C1=O (centres undefined) 0 (no)

Assay result, entry COc1ccc2nc3cc(Cl)ccc3c(N3CCN(c4ccnc(N5CCOCC5)n4)CC3)c2c1 — outcome? 0 (no)

Could you check what this test reported for CN(N=O)C(=O)N[C@@H](C=O)[C@@H](O)[C@H](O)[C@H](O)CO ? 0 (no)

----------
Test system: UACC-257 melanoma
Assay: NCI tumour cell line growth inhibition, 48 h
Listed below: TGI values for each entry.

Take a look at these entries with their results.
compound	TGI
Cc1c(C(=O)C/C(=N/NC(=O)C[n+]2ccccc2)C(=O)Nc2ccccc2)[n+](=O)c2ccccc2n1O	> 100 µM
N#Cc1nc(COCc2ccccc2)oc1N	> 100 µM
O=c1oc2ccccc2c(O)c1C1c2c(c3ccccc3oc2=O)Oc2c1c(=O)oc1ccccc21	> 100 µM
COC1CCC(O)C(/C=C/[N+](=O)[O-])C1 (stereo not given)	5.48 µM

In the following, a different compound is considered.
GET /values?readout=TGI&item= COc1cc(C=C2N=C(c3ccccc3)N(n3c(-c4ccccc4)nc4ccccc4c3=O)C2=O)cc(OC)c1OC 43 µM

----------
Tested on: SR leukemia
Assay: NCI tumour cell line growth inhibition, 48 h
TGI values by entry

# annotated cases, reported TGI shown
compound	TGI
COc1cc(/C=C/C(=O)OCCc2ccccc2)ccc1O	83.5 µM
CC1CCN(CCCCCOc2ccc3oc4cc(Cl)ccc4c(=O)c3c2)CC1	5.18 µM
COc1cc2nccc(Oc3ccc(NC(=O)C4(C(=O)Nc5ccc(F)cc5)CC4)cc3)c2cc1Oc1ccc(N)cn1	> 100 µM

Here is the next item to consider.
Give its TGI value. Item: O=C(CCCN1CCC2(CC1)NC(=O)c1ccccc1O2)c1ccc(F)cc1 > 100 µM

----------
System: SF-539 CNS
Experiment: NCI tumour cell line growth inhibition, 48 h; in the data active = GI50 below about 0.43 µM; inactive = the rest
Can you answer with just one of these options? T = active, F = inactive

compound	qualitative.label
C[C@@H]1CC[C@@H]2[C@@H]1[C@H](OC(=O)/C=C/c1ccccc1)[C@]1(C3CCCCC3)C[C@@H](NC(=O)CO)[C@@]2(C)O1	F
C/C(=N\N=C(\[Se])N1CCN(c2ccccn2)CC1)c1ccccn1	T
Cc1cnc(/C=N\NC(N)=S)c2cccc(N)c12	F
CCOC(=O)/C=C/c1cc2cc(-c3csc4ccccc34)ccc2[nH]1	F
CC(=O)OCC(=O)O[C@@H]1C[C@]2(C(C)C)O[C@@]1(C)[C@@H]1CC[C@@H](C)[C@H]1[C@@H]2OC(=O)/C=C/c1ccccc1	F
O=C(Nc1ccc(Oc2ccc3nc(NC(=O)c4ccccc4)[nH]c3c2)cc1)Nc1cc(C(F)(F)F)ccc1F	F
CCCC[N+](CCCC)=c1ccc2nc3c(C)cc(N(CC)CC)cc3sc-2c1	T
CN(N=O)C(=O)N[C@@H](C=O)[C@@H](O)[C@H](O)[C@H](O)CO	F
Cc1cccc(C(=O)/C=C/SC(=NC#N)SCc2ccccc2)c1	F
CCN1C(=O)NC(=O)C(C)(N2C(=O)c3c(F)c(F)c(F)c(F)c3C2=O)C1=O (stereo unspecified)	F

Now look at this one.
I'd appreciate the recorded outcome for CCOC(=O)c1c2c(n(Cc3ccccc3)c1C)-c1ccccc1C(=O)C2=O from this test. F

----------
Tested on: SN12C renal
Test: NCI tumour cell line growth inhibition, 48 h
Measured GI50 values are reported for all entries that follow.

mol	GI50
CN(N=O)C(=O)N[C@@H](C=O)[C@@H](O)[C@H](O)[C@H](O)CO	> 750 µM
CC/C(=C(/CC)c1ccc([O-])cc1)c1ccc([O-])cc1.CC/C(=C(\CC)c1ccc([O-])cc1)c1ccc([O-])cc1.O=C([CH-]C(=O)c1ccccc1)c1ccccc1.O=C([CH-]C(=O)c1ccccc1)c1ccccc1.O=C([CH-]C(=O)c1ccccc1)c1ccccc1.O=C([CH-]C(=O)c1ccccc1)c1ccccc1.[Ti+4].[Ti+4]	47.1 µM
O=C(CF)N(O)c1ccc(/C=C/c2ccccc2)cc1	2.67 µM
COc1ccc2c(c1)C(=O)C(=O)c1cc(O)c(OC)c(OC)c1-2	1.71 µM
CN1CCN(Cc2ccc(NC(=O)c3cncc(C#Cc4cncc5ncccc45)c3)cc2C(F)(F)F)CC1	2.59 µM
Cc1cccc(C(=O)/C=C/SC(=NC#N)SCc2ccccc2)c1	20.4 µM

What value of measured GI50 is listed for Cn1cc(C2=C(c3cccnc3)C(=O)NC2=O)c2ccccc21 ? > 25 µM

Bench note: what GI50 did O=[N+]([O-])c1ccc2c(N3CCC(CCCC4CCN(c5ncnc6cc([N+](=O)[O-])ccc56)CC4)CC3)ncnc2c1 show? > 55.9 µM
